Biological target: Calmodulin-1 (Homo sapiens) (UniProt P0DP23)
Assay: CALM1 binders on microarrays, EGTA buffer, profiling panel, biochemical, small-molecule microarray, Cy5-labelled CALM1 (AID 1111);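 also: labelled calmodulin applied in Tris saline Tween buffer holding calcium plus EGTA and DTT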
Details: Cy5-CALM1 binding fluorescence, higher = more signal
Reported composite z-score maps to class as: bottom (below 0.4), middle (0.4 to below 0.8), top (0.8 or more)

{"compound": "COc1ccc(NC(=O)O[C@H]2[C@@H]3OC(=O)[C@H](Cc4cccc(Br)c4)C/C=C/C[C@@H](Cc4cccc(Br)c4)C(=O)O[C@H]3[C@@H](OC)O[C@@H]2CO)cc1", "class": "middle"}
{"compound": "COC(=O)[C@@]1(Cc2ccccc2)[C@H]2c3cc(C(=O)N(C)C)n(CCn4cc([N+](=O)[O-])nc4C)c3C[C@H]2CN1C(=O)c1ccccc1", "class": "middle"}
{"compound": "COCCOC(=O)N1C(=O)[C@@]2(c3cc(C#CC4=CCCCC4)ccc31)[C@H](c1ccc(O)cc1)N1[C@H](c3ccccc3)[C@H](c3ccccc3)OC(=O)[C@H]1[C@@H]2C(=O)NC[C@H](O)c1ccccc1", "class": "middle"}
{"compound": "COCCOC(=O)N1C(=O)[C@@]2(c3cc(C#CC4=CCCCC4)ccc31)[C@H](C(=O)N1CCCCCCC1)[C@H]1C(=O)O[C@H](c3ccccc3)[C@H](c3ccccc3)N1[C@@H]2c1ccc(OCCO)cc1", "class": "top"}
{"compound": "COC(=O)C1=CC(CCCO)=CC(c2ccc(CN3CCCC3)cc2)N(Cc2cc3c(cc2Br)OCO3)C=C1C(=O)OC (configuration not stated)", "class": "top"}
{"compound": "O=C1C[C@@](C(=O)NCC(F)(F)F)(c2ccc([N+](=O)[O-])cc2)[C@@H](c2ccc(CO)cc2)N1CC12CC3CC(CC(C3)C1)C2", "class": "top"}
{"compound": "COc1cc2c(cc1O)C(c1cccs1)N(Cc1sc3ccccc3c1Cl)CC2 (configuration not stated)", "class": "top"}
{"compound": "COc1ccc(C(O)C2C=CC3C(=O)N(c4ccccc4)C(=O)C3N2Nc2ccccc2F)cc1 (configuration not stated)", "class": "middle"}
{"compound": "CN1C(=O)C2C=CC(C(O)c3cc(C(F)(F)F)cc(C(F)(F)F)c3)N(NC(=O)OC(C)(C)C)C2C1=O (configuration not stated)", "class": "top"}
{"compound": "CC(C)C[C@@H]1NC(=O)CNC(=O)[C@@]23C(=O)N[C@@H](Cc4ccccc4)C2[C@H](C)[C@@]2(C)O[C@H]2C3/C=C/C/C=C\\CNC1=O (some centres not stated)", "class": "bottom"}
{"compound": "COCCOC(=O)N1C(=O)[C@@]2(c3cc(C#CCCO)ccc31)[C@H](c1ccccc1OCCO)N1[C@H](c3ccccc3)[C@H](c3ccccc3)OC(=O)[C@H]1[C@@H]2C(=O)N1CCCCCCC1", "class": "top"}
{"compound": "CCCCC(=O)N(CCN1CCOCC1)[C@@H]1CC(C(=O)NCCO)=C[C@H](Oc2c(I)cc(CO)cc2OC)[C@H]1O", "class": "bottom"}
{"compound": "COCCCNC(=O)[C@@H]1c2ccccc2C(=O)N(C2Cc3ccccc3C2)[C@H]1c1ccc(CO)cc1", "class": "bottom"}
{"compound": "C=CCOC(=O)[C@H]1[C@@H]2C(=O)O[C@@H](c3ccccc3)[C@@H](c3ccccc3)N2[C@@H](c2ccc(OCCOC(=O)[C@H]3C[C@H]4C(=O)N[C@@H](CCCCNC(C)=O)C(=O)N4[C@H]3c3cccc(OCCO)c3)cc2)[C@]12C(=O)Nc1ccc(I)cc12", "class": "bottom"}
{"compound": "CC(C)C(=C=CC[C@@H](O)c1cccc(OCCO)c1)C[C@@H](O)c1ccccn1", "class": "bottom"}
{"compound": "O=C(NCCN1CCOCC1)[C@@H]1c2ccccc2C(=O)N(Cc2ccccc2)[C@H]1c1ccc(CO)cc1", "class": "middle"}
